Data provenance is patent EP4786492A1.

Reported Emax of OD450 nm binding value is given for each of the following binders.
target: human DLL1 protein (Acro, Cat. No. DL1-H52H8) (human) (UniProt O00548); assay: ELISA, coated hDLL1; maximum over 0.1, 1, 10, 100 nM antibody
Sequence (O00548 18-540 limits assumed): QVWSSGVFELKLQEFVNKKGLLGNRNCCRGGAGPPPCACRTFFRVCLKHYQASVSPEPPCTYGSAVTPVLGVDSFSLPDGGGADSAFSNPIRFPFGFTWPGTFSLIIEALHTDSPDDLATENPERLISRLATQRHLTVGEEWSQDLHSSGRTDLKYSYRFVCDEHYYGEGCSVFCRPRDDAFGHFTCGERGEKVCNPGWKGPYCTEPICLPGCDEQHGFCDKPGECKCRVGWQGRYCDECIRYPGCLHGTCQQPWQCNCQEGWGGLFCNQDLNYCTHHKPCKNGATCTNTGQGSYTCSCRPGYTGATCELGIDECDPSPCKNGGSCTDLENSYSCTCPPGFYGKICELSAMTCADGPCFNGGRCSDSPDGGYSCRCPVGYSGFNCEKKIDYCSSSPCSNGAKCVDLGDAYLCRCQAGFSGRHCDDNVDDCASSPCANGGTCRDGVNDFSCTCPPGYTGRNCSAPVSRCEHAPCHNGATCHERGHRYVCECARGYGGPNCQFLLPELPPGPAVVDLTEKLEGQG
VALUE_TYPE: Emax of OD450 nm binding value (OD450 nm)

{"BINDER": "Hab015VL5VH1a-hFc (scFv, part only; not given: scFv linker and human IgG1 Fc, V domains shown, not shown: another chain or arm of the molecule; a dimerising Fc or GST; small tags and cut ends) VL: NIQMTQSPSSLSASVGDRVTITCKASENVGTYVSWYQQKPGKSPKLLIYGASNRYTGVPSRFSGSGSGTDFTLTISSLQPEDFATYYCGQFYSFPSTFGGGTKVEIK VH: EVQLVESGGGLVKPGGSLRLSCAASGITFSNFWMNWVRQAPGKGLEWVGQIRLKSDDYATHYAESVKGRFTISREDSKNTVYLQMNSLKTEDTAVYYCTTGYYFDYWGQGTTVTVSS", "VALUE_TYPE": "Emax of OD450 nm binding value", "RECORDED_RESULT": 0.47}
{"BINDER": "Hab015VL4VH1b-hFc (scFv, part only; not given: VL-VH linker and human IgG1 Fc, V domains shown, not shown: another chain or arm of the molecule; a dimerising Fc or GST; small tags and cut ends) VL: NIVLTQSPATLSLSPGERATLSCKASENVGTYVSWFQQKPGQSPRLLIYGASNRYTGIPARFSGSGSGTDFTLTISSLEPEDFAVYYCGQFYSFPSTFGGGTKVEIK VH: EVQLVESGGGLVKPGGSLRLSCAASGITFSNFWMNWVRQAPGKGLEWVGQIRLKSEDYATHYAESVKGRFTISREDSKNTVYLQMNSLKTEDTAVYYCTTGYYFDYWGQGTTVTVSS", "VALUE_TYPE": "Emax of OD450 nm binding value", "RECORDED_RESULT": 0.39}
{"BINDER": "Hab006VL1VH4-hFc (scFv, part only; not given: VL-VH linker and human IgG1 Fc, V domains shown, not shown: another chain or arm of the molecule; a dimerising Fc or GST; small tags and cut ends) VL: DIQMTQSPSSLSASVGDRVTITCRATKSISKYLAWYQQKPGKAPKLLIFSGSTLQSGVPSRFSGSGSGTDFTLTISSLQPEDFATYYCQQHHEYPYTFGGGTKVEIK VH: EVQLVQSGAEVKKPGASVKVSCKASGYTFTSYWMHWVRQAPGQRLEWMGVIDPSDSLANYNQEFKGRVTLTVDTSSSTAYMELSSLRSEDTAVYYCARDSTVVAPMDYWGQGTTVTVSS", "VALUE_TYPE": "Emax of OD450 nm binding value", "RECORDED_RESULT": 0.07}
{"BINDER": "Hab009VL1aVH1-hFc (scFv, part only; not given: scFv linker and human IgG1 Fc, V domains shown, not shown: another chain or arm of the molecule; a dimerising Fc or GST; small tags and cut ends) VL: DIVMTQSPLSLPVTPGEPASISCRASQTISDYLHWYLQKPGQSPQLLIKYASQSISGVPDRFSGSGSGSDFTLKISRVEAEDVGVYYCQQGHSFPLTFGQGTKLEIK VH: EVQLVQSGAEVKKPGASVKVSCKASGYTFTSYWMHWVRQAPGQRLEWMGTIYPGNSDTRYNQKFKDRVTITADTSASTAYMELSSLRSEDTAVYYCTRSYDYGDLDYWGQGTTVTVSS", "VALUE_TYPE": "Emax of OD450 nm binding value", "RECORDED_RESULT": 0.05}
